Hello, the source for this data is PubChem BioAssay (NCATS), in case you need it.

# experimental-protocol: Quantitative High-Throughput drug screen in 47 multiple myeloma cell lines against the NCATS MIPE library collection: PCM6_Riken cell viability assay (AID 1919870); also: nearly all actives have a fitted effect of over 30% in size
# assay-setup: CellTiter-Glo ATP, 48 h; series mostly up to 45.8 µM
Results filed as inconclusive are left out. Active and inactive are the calls of the source. Calls follow the shape of the dose curve; as a rule, active = well fitted cell-killing curve with a large enough effect; inconclusive = small, poorly fitted or top-dose-only effect, or effect the other way; inactive = no such curve, though single readings can be large or run the other way.
Outcome (select one): active, inactive

(Q) Kindly provide the recorded test outcome for the following compound: O=C(O)c1cc(O)c2c(c1)C(=O)c1cccc(O)c1C2=O
(A) inactive

(Q) Lookup O=c1ccn([C@@H]2O[C@H](CO)[C@H](O)[C@H]2O)c(=O)[nH]1
(A) inactive

(Q) Lookup O=c1c(-c2ccc(O)cc2)coc2cc(O[C@@H]3O[C@H](CO)[C@H](O)[C@H](O)[C@H]3O)ccc12
(A) inactive

(Q) Lookup Cc1[nH]c(C=C2C(=O)Nc3ccc(S(=O)(=O)Cc4c(Cl)cccc4Cl)cc32)c(C)c1C(=O)N1CCC[C@H]1CN1CCCC1
(A) active

(Q) Lookup CC(C)(C)COc1ccc(-n2cc(C(=O)O)cn2)cc1C#N
(A) inactive

(Q) Lookup COc1ccc(-c2oc3c(CC=C(C)C)c(OC4O[C@H](CO)[C@@H](O)[C@H](O)[C@@H]4O)cc(O)c3c(=O)c2OC2O[C@@H](C)[C@H](O)[C@@H](O)[C@@H]2O)cc1 (stereo partly drawn)
(A) active

(Q) Lookup O=C1c2ccccc2-[n+]2ccc3c([nH]c4ccccc43)c21
(A) active

(Q) Lookup C=C1C(=O)OC(CCCCCCCC)C1C(=O)O (stereo not drawn)
(A) active

(Q) Lookup CCc1ccc(OCc2ccccc2C(=O)Nc2ccc3nc(C)cc(N)c3c2)cc1
(A) active

(Q) Lookup O=c1c(-c2ccc(O)cc2)coc2cc(O)ccc12
(A) inactive

(Q) Lookup O=C1NC(=O)C(=Cc2ccc(-c3ccc(F)cc3)o2)S1
(A) active

(Q) Lookup c1ccc2c(-c3cnn4cc(-c5ccc(N6CCNCC6)cc5)cnc34)ccnc2c1
(A) active

(Q) Lookup CC#CCn1c(N2CCC[C@@H](N)C2)nc2c1c(=O)n(Cc1nc(C)c3ccccc3n1)c(=O)n2C
(A) inactive

(Q) Lookup COc1cc(N2CCC(N3CCN(C)CC3)CC2)ccc1Nc1ncnc(Nc2ccccc2S(=O)(=O)C(C)C)n1
(A) active

(Q) Lookup CC=CCC=CCCC(=O)[C@H]1O[C@@H]1C(N)=O
(A) active

(Q) Lookup O=C(Nc1ccccc1-c1cn2c(CN3CCNCC3)csc2n1)c1cnc2ccccc2n1
(A) active

(Q) Lookup COc1ccc(C2Sc3ccccc3N(CCN(C)C)C(=O)C2OC(C)=O)cc1 (stereo not drawn)
(A) inactive

(Q) Lookup COc1ccc2cccc(CCNC(C)=O)c2c1
(A) inactive

(Q) Lookup CC1(C)CCC(CN2CCN(c3ccc(C(=O)NS(=O)(=O)c4ccc(NCC5CCOCC5)c([N+](=O)[O-])c4)c(Oc4cnc5[nH]ccc5c4)c3)CC2)=C(c2ccc(Cl)cc2)C1
(A) active

(Q) Lookup O=c1cc(-c2ccccc2)oc2cc(O)cc(O)c12
(A) active

(Q) Lookup Oc1ccc(C2CCN(c3ccnc4ccccc34)CC2)cc1O
(A) active

(Q) Lookup O=C1NC(=O)C(=Cc2ccc3c(c2)OC(F)(F)O3)S1
(A) active

(Q) Lookup O=C1Nc2ccc(Cl)cc2C(C#CC2CC2)(C(F)(F)F)O1 (stereo not drawn)
(A) active

(Q) Lookup CC1(C)Cc2c(sc(NC(=S)NC(=O)c3ccccc3)c2C(=O)O)CO1
(A) inactive

(Q) Lookup O=C(O)c1ccc(-c2cc3cccnc3c(-c3ccc4nonc4c3)n2)cc1
(A) active

(Q) Lookup CC(=O)Nc1ccc([C@H](C)C(=O)Nc2ncc(C(C)C)s2)cc1
(A) active

(Q) Lookup CC(C)(C)C(=O)Oc1ccc2c(c1)nc(NC(=O)c1cccc([N+](=O)[O-])c1)n2CCCO
(A) inactive

(Q) Lookup CNC(=O)c1ccc2cc(C3(O)CCn4cncc43)ccc2c1 (stereo not drawn)
(A) inactive

(Q) Lookup Cc1ccc(F)c(NC(=O)Nc2ccc(-c3cccc4[nH]nc(N)c34)cc2)c1
(A) active

(Q) Lookup CC(C)n1cnc2c(NCCCCCCNC(=O)OC(C)(C)C)nc(NCCO)nc21
(A) active

(Q) Lookup COC(=O)N[C@H](C(=O)N1CCC[C@@H]1c1ncc(-c2ccc(-c3ccc(-c4cnc([C@@H]5CCCN5C(=O)[C@@H](NC(=O)OC)C(C)C)[nH]4)cc3)cc2)[nH]1)C(C)C
(A) active

(Q) Lookup O=C(CCCCCCC(=O)Nc1ccccc1)NO
(A) active

(Q) Lookup O=C(N[C@@H](c1ccccc1)[C@@H]1CCCCN1)c1cccc(C(F)(F)F)c1Cl
(A) active

(Q) Lookup O=C(NCc1ccccc1)c1csc(Nc2ccncn2)n1
(A) active

(Q) Lookup CN(C[C@@H]1COCCO1)S(=O)(=O)Nc1ccc2ccc3ncc(-c4cnn(C)c4)cc3c(=O)c2c1
(A) active

(Q) Lookup CN1[C@@H]2CCC[C@@H]1CC(NC(=O)c1nn(C)c3ccccc13)C2 (stereo partly drawn)
(A) inactive

(Q) Lookup CC(C)(C(=O)NCC(F)(F)C(F)(F)F)C(=O)N[C@@H]1C(=O)Nc2ccccc2-c2ccccc21
(A) active

(Q) Lookup CO[C@H]1C=CC=C(C)C(=O)NC2=CC(=O)C(NCCN(C)C)=C(C[C@@H](C)C[C@H](OC)[C@@H](O)[C@@H](C)C=C(C)[C@@H]1OC(N)=O)C2=O
(A) active
